Listed here are molecules together with their documented cell viability.
- Tested on: OCI-AML2;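 also: after 48 h exposure read by CellTiter-Glo luminescence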
- Assay Remarks: cell viability relative to vehicle control; higher = less cytotoxic
- Particulars: 10 µM; SRSF2 genotype: P95H/wt
Where a name gives a salt, the structure may show the parent alone.
Write the number in % without appending the unit.

>>> obs_value("N#CC(C#N)=Cc1ccc(O)c(O)c1")
78.8
>>> obs_value("OC1CC2CCC(C1)N2 (stereo unspecified) [Nortropine Hydrochloride]")
105
>>> obs_value("COC1=C[C@@H]2[C@@H]3Cc4ccc(OC)c(O)c4[C@]2(CCN3C)CC1=O [Sinomenine hydrochloride]")
103
>>> obs_value("CCc1c2c(nc3ccccc13)-c1cc3c(c(=O)n1C2)COC(=O)[C@]3(O)CC")
0.36

Recall the recorded cell viability for C[C@]12CC[C@H]3[C@@H](CCC4=CC(=O)C=C[C@@]43C)[C@@H]1CC[C@@H]2O with OCI-AML2 and state it.
113

Recall the recorded cell viability for COc1ccc(C[C@H]2NC[C@H](O)[C@H]2OC(C)=O)cc1 with OCI-AML2 and state it.
3.57

Recall the recorded cell viability for O=C(O)CNC(=O)C1C(=O)N(C2CCCCC2)C(=O)N(C2CCCCC2)C1=O with OCI-AML2 and state it.
98.8

Recall the recorded cell viability for CC[C@H]1CN2CC[C@H]1C[C@H]2[C@H](O)c1ccnc2ccc(OC)cc12 [Hydroquinine] with OCI-AML2 and state it.
100

Recall the recorded cell viability for CCC1=C[C@H]2CN3CCc4c([nH]c5ccccc45)[C@](C(=O)OC)(C2)[C@H]13 with OCI-AML2 and state it.
92

Recall the recorded cell viability for O=C(c1ccccc1O)c1[nH]c(Cl)c(Cl)c1-n1c(C(=O)c2ccccc2O)cc(Cl)c1Cl with OCI-AML2 and state it.
4.26
